Source listed as PubChem BioAssay (NCATS).

- assayExplanation: qHTS for Inhibitors of the Functional Ribonucleoprotein Complex (vRNP) of Lymphocytic Choriomeningitis Arenaviruses (LCMV): Viability assay - alamar blue signal for LCMV Primary Screen (AID 1347085); further: nearly all actives have a fitted effect of over 80% in size
- conditionDescription: alamar blue viability counter-screen, LCMV vRNP screen cells; series mostly up to 57.5 µM
Records with an inconclusive call do not appear. Active and inactive are the calls of the source. The call rests on the fitted dose curve; tested in HEK293 reporter line.
Please reply with one of these outcomes: yes (1) (active), no (0) (inactive)

COc1cc(OC)c(NC(=O)Nc2cc(C)on2)cc1Cl	no (0)
O=[N+]([O-])c1cccc2cn[nH]c12	no (0)
O=[N+]([O-])c1cn2c(n1)OC[C@@H](OCc1ccc(OC(F)(F)F)cc1)C2	no (0)

stdin: Short answer needed: outcome of this test for `NC(=O)c1ncn([C@@H]2O[C@H](CO)[C@@H](O)[C@@H]2O)c1O` ?
stdout: no (0)

stdin: Short answer needed: outcome of this test for `CN[C@H]1[C@@H](O)[C@@H]2O[C@@H]3O[C@H](C)CC(=O)[C@]3(O)O[C@@H]2[C@@H](NC)[C@H]1O` ?
stdout: yes (1)
